Source: PubChem BioAssay AID1159580

Can you tell me normalized growth for the items I'm about to list?
testName: chemical genetic growth profiling, strain panel (AID 1159580);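 note: tested at 20 µM; growth read once vehicle control cultures reached saturation at 30 °C; 1 = growth at the plate median or of vehicle wells; lower values mean less growth of the strain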
conditionNotes: S. cerevisiae deletion strains, growth OD, locus YDR388W, hits give low values
The campaign covered roughly 5,500 compounds. About 2,000 (36%) were called active. Another 18% or so got no clear call; they are omitted. The list shows a part of the results.
Numbers only.

Worked cases, answers included:
COc1ccccc1-c1coc2cc(O)ccc2c1=O ... 1.03
O=c1c(-c2ccc(O)cc2)coc2cc(O)ccc12 ... 0.98
COc1ccc(-c2coc3cc(O)ccc3c2=O)c(OC)c1 ... 1
COc1ccc(-c2coc3cc(OC)ccc3c2=O)cc1 ... 0.92
CCN1CCCC(OC(=O)C(c2ccccc2)c2ccccc2)C1 (stereo unspecified) ... 1.01

### Prompt For the molecule shown here, `COc1ccc(-c2coc3cc(O)ccc3c2=O)cc1` , give the reported normalized growth.
### Response 0.964
